system: Pseudomonas aeruginosa; assay: MIC against clinical isolates; type: cell-based; conditions: clinical isolate S-2; unit assumed
measured.property: MIC (µg/mL)
Give the quantity in µg/mL, number only.

Sample answers from the record:
**Q:** MIC for CCN1CCN(C(=O)NC(C(=O)NC2C(=O)N3C(C(=O)O)=C(CSc4nnnn4C)CSC23)c2ccccc2)C(=O)C1=O (centres unmarked) ?
**A:** 25

**Q:** MIC lookup needed for `CCCCCCCCN1CCN(C(=O)N[C@@H](C(=O)N[C@@H]2C(=O)N3[C@@H]2SC(C)(C)[C@@H]3C(=O)O)c2ccccc2)CC1=O` , thanks.
**A:** 50

**Q:** Tell me the measured MIC of `CCN1CCN(C(=O)N[C@@H](C(=O)N[C@@H]2C(=O)N3[C@@H]2SC(C)(C)[C@@H]3C(=O)O)c2ccccc2)CC1=O` , please.
**A:** 50

**Q:** Name the reported MIC value associated with the compound `CN1CCN(C(=O)N[C@@H](C(=O)N[C@@H]2C(=O)N3C(C(=O)[O-])=C(C[n+]4ccccc4)CS[C@H]23)c2ccccc2)C(=O)C1=O`
**A:** 25

**Q:** # lookup: MIC of CCCCN1CCN(C(=O)N[C@@H](C(=O)N[C@@H]2C(=O)N3[C@@H]2SC(C)(C)[C@@H]3C(=O)O)c2ccccc2)C(=O)C1=O (single isomer, unassigned)
**A:** 12.5

New cases:
**Q:** # lookup: MIC of CCCN1CCN(C(=O)N[C@@H](C(=O)N[C@@H]2C(=O)N3[C@@H]2SC(C)(C)[C@@H]3C(=O)O)c2ccccc2)C(=O)C1=O (single isomer, unassigned)
**A:** 12.5

**Q:** Could you tell me which MIC is on file for CC(C)N1CCN(C(=O)N[C@@H](C(=O)N[C@@H]2C(=O)N3[C@@H]2SC(C)(C)[C@@H]3C(=O)O)c2ccccc2)C(=O)C1=O (single isomer, unassigned) ?
**A:** 25

**Q:** I would be grateful if you could share the reported MIC for CCCCCN1CCN(C(=O)N[C@@H](C(=O)N[C@@H]2C(=O)N3[C@@H]2SC(C)(C)[C@@H]3C(=O)O)c2ccccc2)C(=O)C1=O (single isomer, unassigned) .
**A:** 25

**Q:** What does the record list as MIC for `CCCCN1CCN(C(=O)N[C@@H](C(=O)N[C@@H]2C(=O)N3[C@@H]2SC(C)(C)[C@@H]3C(=O)O)c2ccccc2)C(=O)C1` ?
**A:** 50

**Q:** // query MIC value for entry `CCCCCCN1CCN(C(=O)N[C@@H](C(=O)N[C@@H]2C(=O)N3[C@@H]2SC(C)(C)[C@@H]3C(=O)O)c2ccccc2)C(=O)C1`
**A:** 50

**Q:** Give its MIC value. Item: CC1(C)S[C@@H]2[C@H](NC(=O)C(c3ccccc3)S(=O)(=O)O)C(=O)N2[C@H]1C(=O)O (some centres unmarked) [Sodium Sulbenicillin, SodiumSulbenicillin, reference compound]
**A:** 100
